This collection of values is drawn from patent US8383637B2.

tested on: β-secretase(BACE) (Homo sapiens, UniProt P56817)
Construct: purchased Panvera
Sequence (P56817 46-501): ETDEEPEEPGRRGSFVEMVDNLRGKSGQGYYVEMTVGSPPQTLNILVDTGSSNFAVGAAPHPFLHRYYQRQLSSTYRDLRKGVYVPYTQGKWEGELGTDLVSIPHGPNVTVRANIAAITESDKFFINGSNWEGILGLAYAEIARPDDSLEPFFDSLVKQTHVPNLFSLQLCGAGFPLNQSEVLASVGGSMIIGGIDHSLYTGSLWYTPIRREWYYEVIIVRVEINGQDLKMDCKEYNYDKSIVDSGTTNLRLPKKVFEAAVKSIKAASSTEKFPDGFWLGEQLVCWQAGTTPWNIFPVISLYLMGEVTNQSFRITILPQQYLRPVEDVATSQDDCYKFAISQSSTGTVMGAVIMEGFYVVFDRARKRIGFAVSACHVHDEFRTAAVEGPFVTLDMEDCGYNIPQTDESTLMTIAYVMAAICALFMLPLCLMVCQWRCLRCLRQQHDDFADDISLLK
run description: BACE FS1% Inhibition Assay
Assay type: biochemical
applied conditions: 1 μM test compound; FS1 substrate; read-out: % Inhibition (FS) 1 μM
quantity kind: inhibition at 1 µM (%)

Use these answered entries as a reference point.
> print(dat)
                                   compound                                 tested.on  numeric.value
1  CN(C(=O)CC[C@@H](C(=O)N(C)C1CCCCC1)N1Cc2cc(Oc3ccccc3)ccc2N=C1N)C1CCCCC1  β-secretase(BACE) (Homo sapiens, UniProt P56817)             88
2  COc1ccccc1-c1ccc2c(c1)CN(CCC(=O)NC1C3CC4CC(C3)CC1C4)C(N)=N2 (centres unmarked)  β-secretase(BACE) (Homo sapiens, UniProt P56817)            118
3  COc1cccc(OC)c1-c1ccc2c(c1)CN(Cc1cccc(C(=O)N(C)C3CCCCC3)c1)C(N)=N2  β-secretase(BACE) (Homo sapiens, UniProt P56817)             63

P: NC1=Nc2ccc(Oc3ccccc3)cc2CN1[C@@H](CNC(=O)C1CCCCC1)C1CCCCC1
Q: NC1=Nc2ccc(Oc3ccccc3)cc2CN1CCNC(=O)Nc1ccccc1
R: CCCCCC(CCC(=O)NC1CCCCC1)N1Cc2cc(Oc3ccccc3)ccc2N=C1N (centres unmarked)
Task: // ranking: key=inhibition at 1 µM, reverse=True Answer by listing the labels in the order asked for.
Result: P, R, Q

---

tested on: UniProt:P56817
run description: BACE Assay (CEREP)
Assay type: biochemical
applied conditions: test compound 0.3 μM; recombinant enzyme, 60 min at 37° C., pH 4.5
quantity kind: inhibition at 0.3 µM (%)

compound	tested on	unit of measurement	inhibition at 0.3 µM
NC1=Nc2ccc(Oc3ccccc3)cc2CN1[C@@H](CCC(=O)N(Cc1ncc[nH]1)C1CCCCC1)C1CCCCC1	UniProt:P56817	%	97
NC1=Nc2ccc(Oc3ccccc3)cc2CN1[C@@H](CCC(=O)N(Cc1nc[nH]n1)C1CCCCC1)C1CCCCC1	UniProt:P56817	%	98
CC(=O)OCC1OC(OCCN(C(=O)CCC(C2CCCCC2)N2Cc3cc(Oc4ccccc4)ccc3N=C2N)C2CCCCC2)C(OC(C)=O)C(OC(C)=O)C1OC(C)=O (stereo not drawn)	UniProt:P56817	%	95
NC1=Nc2ccc(Oc3ccccc3)cc2CN1[C@@H](CCC(=O)N(CCO[C@@H]1O[C@H](CO)[C@@H](O)[C@H](O)[C@H]1O)C1CCCCC1)C1CCCCC1	UniProt:P56817	%	95
NC1=Nc2ccc(Oc3ccccc3)cc2CN1[C@@H](CCC(=O)N1C2CCCCC2C[C@H]1C(=O)O)C1CCCCC1 (stereo partly drawn)	UniProt:P56817	%	98
NC1=Nc2ccc(Oc3ccccc3)cc2CN1[C@@H](CCC(=O)N(Cc1ccncc1)C1CCCCC1)C1CCCCC1	UniProt:P56817	%	94

---

Reported % Inhibition (FS) 0.3 μM values for the following molecules.
tested on: β-secretase(BACE) (Homo sapiens)
Construct: purchased Panvera
run description: BACE FS1% Inhibition Assay
Format: biochemical
applied conditions: 0.3 μM test compound; FS1 substrate

> print(dat)
                                   molecule             quantity.kind  result
1  CCCC(=O)NCCN1Cc2cc(-c3ccccc3F)ccc2N=C1N [Compound 645]  % Inhibition (FS) 0.3 μM     67%
2  CC(C)(C)C(=O)NCCN1Cc2cc(-c3ccccc3F)ccc2N=C1N [Compound 646]  % Inhibition (FS) 0.3 μM     52%
3  CC(C)C(=O)NCC(C1CCCCC1)N1Cc2cc(Oc3ccccc3)ccc2N=C1N (centres unmarked) [Compound 301]  % Inhibition (FS) 0.3 μM    <30%

Task: Look up and report measured % Inhibition (FS) 0.3 μM for this entry: CN(C)c1ccc(Nc2ccc3c(c2)CN(Cc2cccc(C(=O)N(C)C4CCCCC4)c2)C(N)=N3)cc1 [Compound 438]
Result: <30%
